Target protein (sequence): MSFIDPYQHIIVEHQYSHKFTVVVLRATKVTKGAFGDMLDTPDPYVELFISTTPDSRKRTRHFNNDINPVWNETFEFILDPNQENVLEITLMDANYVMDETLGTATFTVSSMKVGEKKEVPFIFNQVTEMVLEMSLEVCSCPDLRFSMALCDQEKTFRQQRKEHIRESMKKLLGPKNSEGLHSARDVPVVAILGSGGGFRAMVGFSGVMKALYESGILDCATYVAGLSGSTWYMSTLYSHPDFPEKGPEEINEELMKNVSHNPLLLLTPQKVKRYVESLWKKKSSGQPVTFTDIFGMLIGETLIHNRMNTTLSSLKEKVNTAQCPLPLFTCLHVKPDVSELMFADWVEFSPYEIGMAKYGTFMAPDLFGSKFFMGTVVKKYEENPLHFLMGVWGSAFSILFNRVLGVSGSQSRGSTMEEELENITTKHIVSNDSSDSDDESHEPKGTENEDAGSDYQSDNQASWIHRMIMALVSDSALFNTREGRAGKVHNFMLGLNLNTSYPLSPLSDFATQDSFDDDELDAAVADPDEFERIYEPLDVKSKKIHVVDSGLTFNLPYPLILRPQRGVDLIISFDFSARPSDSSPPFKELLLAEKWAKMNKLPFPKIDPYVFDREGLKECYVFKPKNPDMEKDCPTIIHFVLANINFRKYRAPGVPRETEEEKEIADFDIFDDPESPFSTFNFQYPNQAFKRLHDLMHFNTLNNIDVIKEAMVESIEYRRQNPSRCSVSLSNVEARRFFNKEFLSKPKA
pIC50: −log10 of the molar value.
Measure Name: pIC50

Would you please look over these solved cases?
Molecule: O=C1NC(=S)S/C1=C\c1ccc(C=C[C@@H]2C[C@@H](OCc3ccccc3-c3ccccc3)CN2C(=O)c2ccccc2C(=O)c2ccc(F)cc2)cc1
pIC50: 6.14

Molecule: CC(C)Cc1cccc(-c2cccc3ccccc23)c1O[C@@H]1C[C@@H](CNC(=O)c2ccc(/C=C3\SC(=O)NC3=O)cc2)N(C(=O)c2ccccc2C(=O)c2ccc(F)cc2)C1
pIC50: 8.18

Molecule: Cc1ccc(C(=O)c2ccccc2C(=O)N2C[C@H](OCc3ccccc3-c3ccccc3)C[C@H]2C(=O)Nc2ccc(/C=C3\SC(=O)NC3=O)cc2)cc1
pIC50: 6.36

(a) CC(C)CN(CC(C)C)[C@@H]1C[C@@H](CNC(=O)c2ccc(/C=C3\SC(=O)NC3=O)cc2)N(C(=O)c2ccccc2C(=O)c2ccc(F)cc2)C1
(b) O=C1NC(=O)/C(=C/c2ccc(C(=O)NC[C@@H]3C[C@@H](OCc4ccccc4-c4ccccc4)CN3C(=O)CCC(=O)c3ccccc3)cc2)S1
(c) O=C1NC(=O)/C(=C/c2ccc(C(=O)NCCC[C@@H]3C[C@@H](OCc4ccccc4-c4ccccc4)CN3C(=O)c3ccccc3C(=O)c3ccc(F)cc3)cc2)S1
(d) O=C1NC(=O)/C(=C/c2ccc(C(=O)NC[C@@H]3C[C@@H](OCc4ccccc4-c4ccccc4)CN3C(=O)c3ncccc3C(=O)c3ccccc3)cc2)S1
Sort by pIC50, descending. Put the labels in the requested order and write them down.
a, d, b, c
(a: 6.82, d: 6.07, b: 5.30, c: 4.82)

(I) O=C1NC(=O)C(CCCc2ccc(C(=O)NC[C@@H]3C[C@@H](OCc4ccccc4-c4ccccc4)CN3C(=O)c3ccccc3C(=O)c3ccc(F)cc3)cc2)S1 (some centres unmarked)
(II) O=C1NC(=O)/C(=C/c2ccc(C(=O)NC[C@@H]3C[C@@H](OCc4ccccc4-c4ccsc4)CN3C(=O)c3ccccc3C(=O)c3ccc(F)cc3)cc2)S1
Which value of pIC50 is greater, the one for I or the one for II ? Refer to your chosen item by its label in the answer.
II
(II: 7.08, I: 6.74)
